Molecular target: MyD88^TIR (Homo sapiens, UniProt Q99836)
Construct: MyD88 (residues 148–296); 6xHis; made in house; host or cells: E. coli BL21 (DE3)
Sequence (Q99836 148-296): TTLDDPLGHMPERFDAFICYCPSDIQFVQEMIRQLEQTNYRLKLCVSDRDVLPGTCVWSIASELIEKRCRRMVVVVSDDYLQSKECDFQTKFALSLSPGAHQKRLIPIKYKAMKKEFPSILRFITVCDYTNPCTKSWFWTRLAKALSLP
Assay: T‐Surf phage library (P8 and P3) selection against MyD88^TIR, four rounds, NGS read counts
Format: binding
Conditions: P3 library, selection against MyD88, rank before grouping
measurement-type: P3_MyD88 Rank (before)

// solved cases for P3_MyD88 Rank (before) follow
YYLDPSHLRKHSGEIG = 1464
SEKYAKSPWAKVGLVL = 3001
DHHLALPRGKASKPEHLG = 1994
YTALSYRGFHDFRGNE = 1638
DHQLDLPRCKAIKPEILG = 2062
LKWGDPAYRLALHYRDFN = 2445

P = LLAHEISKNMKIFATI
Q = KEPERYQFAIPERDFP
In: When P and Q are compared, which has the higher number for P3_MyD88 Rank (before)? When you have decided, please share the label of that item.
Out: Q
